Reported values of protein stability index for individual entries
B1: VPS39 (parent)
chain: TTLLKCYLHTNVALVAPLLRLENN

- Variants of: B1
- Assay comment: protein stability index of a GFP-peptide fusion (GPS, HEK-293T) (PSI 1-6); higher = more stable;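 further: lentivirally expressed fusions sorted by FACS into six bins by GFP to DsRed ratio, PSI derived from sequencing read proportions per bin multiplied by bin number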
- Recorded conditions: c terminus: a fixed tail appended
Assay endpoint: protein stability index

> print(dat)
    changes           assay.endpoint  numeric.result
 1     R20M  protein stability index             1.5
 2     P17R  protein stability index            1.38
 3     N11G  protein stability index            1.33
 4     L14M  protein stability index            2.27
 5     E22V  protein stability index            1.69
 6     A13P  protein stability index             2.2
 7     N24H  protein stability index            3.11
 8      C6A  protein stability index            1.25
 9     L14E  protein stability index            1.57
10     N23Y  protein stability index            2.99
11     A16M  protein stability index            2.02
12     N23M  protein stability index            2.81
13      L3D  protein stability index            2.22
14      L8A  protein stability index            2.49
15     N11Q  protein stability index             4.1
16      L4P  protein stability index            1.74
17     V15N  protein stability index            2.07
18      L4V  protein stability index            3.82
19     N23R  protein stability index            2.37
20     L21D  protein stability index            1.59
21      L4D  protein stability index            1.35
22      T1A  protein stability index            3.76
23     L14I  protein stability index            3.28
24     V15H  protein stability index            2.17
25      L8W  protein stability index            2.17
26     A13M  protein stability index            2.14
27     L21T  protein stability index             2.9
28      T2L  protein stability index             3.5
29      H9T  protein stability index             3.1
30      L8N  protein stability index            1.98
31      L8F  protein stability index            4.45
32      L8H  protein stability index            1.82
33     L18F  protein stability index            2.06
34     R20D  protein stability index            2.23
35     N11I  protein stability index            1.85
36     T10Y  protein stability index            2.73
37      L8R  protein stability index            2.35
38      K5P  protein stability index            1.88
39     V15D  protein stability index            1.31
40      H9P  protein stability index            1.59
41      Y7E  protein stability index            1.73
42     L14Q  protein stability index            1.68
43      L4M  protein stability index            3.92
44     E22W  protein stability index             1.4
45      Y7V  protein stability index            2.59
46     L21N  protein stability index             3.2
